Listed here are binders together with their documented SPOT peptide array binding signal intensity.
Target: AgLsb4
Experiment: SPOT peptide array binding signal intensity (averaged, normalized) (arbitrary units (background-subtracted, floor 0; scale differs between SH3 domains)); higher = stronger binding of the SH3 domain to the peptide
measurement_kind: SPOT peptide array binding signal intensity

binder: PELAPKREAPKPPAN
relation_operator: ≤
numeric_result: 0
--
binder: RSKRLFPVRPMATAH
relation_operator: =
numeric_result: 51
--
binder: KKAPPPVVKPKPRNF
relation_operator: =
numeric_result: 12.5
--
binder: IHTRRPSSTSQYLIR
relation_operator: =
numeric_result: 32
--
binder: AGKRRLPLVRFKASD
relation_operator: =
numeric_result: 214
--
binder: ISNFVPPNLPMRRFK
relation_operator: =
numeric_result: 3890
--
binder: QQEQNTPPLPPKPKS
relation_operator: =
numeric_result: 151
--
binder: LPMNIQPDLPPRKIM
relation_operator: =
numeric_result: 3030
--
binder: RPPRPPPKPLHLRTE
relation_operator: =
numeric_result: 52
--
binder: LASNSPPVYPKRIRH
relation_operator: =
numeric_result: 196
--
binder: HGKRRAPLLLAKLDV
relation_operator: =
numeric_result: 29.5
--
binder: ISPPASPPPEFDFSK
relation_operator: ≤
numeric_result: 0
--
binder: PSPSSSPPPIPKTAN
relation_operator: ≤
numeric_result: 0
--
binder: GKFIPSRPAPKPPSS
relation_operator: =
numeric_result: 19
--
binder: RRASLFPRDPKRLRP
relation_operator: =
numeric_result: 112
--
binder: NPNRRAPRRPLSTQH
relation_operator: =
numeric_result: 110
--
binder: PIVPSSPAPPLPLSG
relation_operator: ≤
numeric_result: 0
--
binder: YVRRRPRVRLEPLLS
relation_operator: =
numeric_result: 138
--
binder: AAAPKHAPPPVPNET
relation_operator: ≤
numeric_result: 0
--
binder: KKEKKPPKIPKKVYT
relation_operator: =
numeric_result: 1.5
--
binder: NGRRRPKFRVQLSGN
relation_operator: =
numeric_result: 379
--
binder: LLLLFVPDSPYDPAI
relation_operator: =
numeric_result: 636
--
binder: SAPDIPPRSPNRNAH
relation_operator: =
numeric_result: 328
--
binder: SRSKPLPLTPNSKYN
relation_operator: =
numeric_result: 9
--
binder: RAPPPVPKKPSSRIA
relation_operator: =
numeric_result: 48
--
binder: TIRRRAPLSLLESHT
relation_operator: =
numeric_result: 99.5
--
binder: PPLPRAPPVPPATFE
relation_operator: ≤
numeric_result: 0
--
binder: TKFRISLGLPVGAIM
relation_operator: =
numeric_result: 513
--
binder: KDKKTKPTPPPKPSH
relation_operator: ≤
numeric_result: 0
--
binder: MAMRPIPPLPTESEY
relation_operator: =
numeric_result: 1930

Values from the supplement of paper PMC4466140
